Test: in vitro
Details: human
Recorded CC50, one value per entry.
Expressed in µM, but write only the number.

Worked set:
Compound | Measure unit | CC50
COc1ccc(-n2cnc3cc(NCc4ccc(C(F)(F)F)cc4)ccc32)cc1 [Compound 13j] | µM | 109
COc1ccc(-n2cnc3cc(NCc4ccc(C(C)C)cc4)ccc32)cc1 [ST−193, reference compound] | µM | 56.3

Below: the item to evaluate.
input: For the compound COc1ccc(-n2cnc3cc(NCc4ccc(OC)c(O)c4)ccc32)cc1 [Compound 13a] , what CC50 is on record?
output: 62.6

* * *

Recorded melting point, one value per entry.

Compound | melting point
CC(C)Oc1ccc(-n2cnc3cc(/C=C/c4ccc(OC(F)F)cc4)ccc32)cc1 [Compound 7e−E] | 173 to 174 °C

input: For the compound COc1ccc(-n2cnc3cc(NCc4ccc(C(F)(F)F)cc4)ccc32)cc1 [Compound 13j] , what melting point is on record?
output: 198.3 to 200.5 °C

input: Now give it for COc1ccc(-n2cnc3cc(NCc4ccc(C(C)(C)C)cc4)ccc32)cc1 [Compound 13f] too.
output: 175.8 to 176.9 °C

input: Now give it for CC(C)Oc1ccc(-n2cnc3cc(/C=C\c4ccc(C(F)(F)F)cc4)ccc32)cc1 [Compound 7g−Z] too.
output: 165 to 166 °C

* * *

Biological target: LASV GP2 (Lassa virus, UniProt P08669)
Sequence (P08669 260-491 limits assumed): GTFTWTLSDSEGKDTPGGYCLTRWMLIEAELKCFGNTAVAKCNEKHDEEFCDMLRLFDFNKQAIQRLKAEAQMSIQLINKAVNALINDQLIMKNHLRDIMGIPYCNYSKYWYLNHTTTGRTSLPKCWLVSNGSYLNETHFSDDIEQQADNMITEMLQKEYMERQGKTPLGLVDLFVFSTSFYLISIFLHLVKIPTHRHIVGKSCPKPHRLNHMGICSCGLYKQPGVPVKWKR
Test: biochemical
Format: binding
Recorded kd, one value per entry.
Expressed in s⁻¹, but write only the number.

Compound | Target of assay | kd / s⁻¹
COc1ccc(CNc2ccc3c(c2)ncn3-c2ccc(OC)cc2)cc1 [Compound 13g] | LASV GP2 (Lassa virus, UniProt P08669) | 0.30
COc1ccc(-n2cnc3cc(NCc4ccc(C(C)(C)C)cc4)ccc32)cc1 [Compound 13f] | LASV GP2 (Lassa virus, UniProt P08669) | 0.03
COc1ccc(-n2cnc3cc(NCc4ccc(C(C)C)cc4)ccc32)cc1 [ST−193, reference compound] | LASV GP2 (Lassa virus, UniProt P08669) | 0.01
Cc1ccc(/C=C\c2ccc3c(c2)ncn3-c2ccc(OC(C)C)cc2)cc1 | LASV GP2 (Lassa virus, UniProt P08669) | 0.07
COc1ccc(-n2cnc3cc(NCc4cccc(O)c4)ccc32)cc1 [Compound 13h] | LASV GP2 (Lassa virus, UniProt P08669) | 0.42

input: For the compound CC(C)Oc1ccc(-n2cnc3cc(/C=C\c4ccc(OC(F)(F)F)cc4)ccc32)cc1 , what kd is on record?
output: 0.03

input: Now give it for CC(C)Oc1ccc(-n2cnc3cc(/C=C\c4ccc5ccccc5c4)ccc32)cc1 too.
output: 0.03

input: Now give it for COc1ccc(-n2cnc3cc(NCc4cc(OC)c(O)c(OC)c4)ccc32)cc1 [Compound 13e] too.
output: 0.22

input: Now give it for COc1ccc(-n2cnc3cc(NCc4ccc(C(F)(F)F)cc4)ccc32)cc1 [Compound 13j] too.
output: 0.04

input: Now give it for COc1ccc(-n2cnc3cc(NCc4ccc(OC)c(O)c4)ccc32)cc1 [Compound 13a] too.
output: 0.03

input: Now give it for CC(C)Oc1ccc(-n2cnc3cc(/C=C\c4ccc(C(C)(C)O)cc4)ccc32)cc1 [LHF−535, reference compound] too.
output: 0.03

input: Now give it for CC(C)Oc1ccc(-n2cnc3cc(/C=C\c4ccc(C(F)(F)F)cc4)ccc32)cc1 too.
output: 0.13

input: Now give it for CC(C)Oc1ccc(-n2cnc3cc(/C=C\c4ccc(C#N)cc4)ccc32)cc1 too.
output: 0.28

input: Now give it for COc1ccc(-n2cnc3cc(NCc4ccc(Cl)c(Cl)c4)ccc32)cc1 [Compound 13i] too.
output: 0.49

input: Now give it for COc1ccc(-n2cnc3cc(NCc4ccc(O)c(OC)c4)ccc32)cc1 [Compound 13b] too.
output: 0.20

input: Now give it for CC(C)Oc1ccc(-n2cnc3cc(/C=C\c4ccc(OC(F)F)cc4)ccc32)cc1 too.
output: 0.08

input: Now give it for COc1ccc(-n2cnc3cc(NCc4cc(OC)c(OC)cc4OC)ccc32)cc1 [Compound 13d] too.
output: 0.03

input: Now give it for CC(C)Oc1ccc(-n2cnc3cc(/C=C\c4ccc(C(C)(C)C)cc4)ccc32)cc1 too.
output: 0.04

input: Now give it for CCOc1ccc(/C=C\c2ccc3c(c2)ncn3-c2ccc(OC(C)C)cc2)cc1 too.
output: 0.02
